Read-out: Vascular cell adhesion molecule 1 (VCAM1), VCAM1 (gene 7412)
assay.procedure: BSK_4H_VCAM1: BioMAP Diversity Plus: 4H Assay for Vascular cell adhesion molecule 1 (VCAM1) Biomarker Activity (AID 2283033);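 for outcome: cell-surface VCAM-1 protein measured by ELISA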
experimental.context: primary human endothelial cells (HUVEC); actives raise or lower the signal
Active and inactive are the calls of the source. Rule for the calls: active = hit-call score of the fitted dose curve at least 0.9, where 1 is the maximum; inactive = score below 0.9.
Respond only with the outcome that fits, drawn from active, inactive

Prompt: For O=C(Cl)c1cc(C(=O)Cl)cc(C(=O)Cl)c1 , which call appears in the assay record?
Response: active

Prompt: For O=Nc1ccc(O)cc1 , which call appears in the assay record?
Response: inactive

Prompt: For O=C1CCCN1CCO , which call appears in the assay record?
Response: inactive

Prompt: For N#[N+]c1ccc2c(S(=O)(=O)[O-])cccc2c1O , which call appears in the assay record?
Response: inactive

Prompt: For CCO[Si](CCCN=C=O)(OCC)OCC , which call appears in the assay record?
Response: inactive

Prompt: For CCO[Si](C)(OCC)OCC , which call appears in the assay record?
Response: inactive

Prompt: For O=c1c2ccccc2oc2ccccc12 , which call appears in the assay record?
Response: inactive

Prompt: For O=C(c1ccc(O)cc1)c1ccc(O)cc1O , which call appears in the assay record?
Response: inactive

Prompt: For CCCCC(CC)COCC1CO1 (centres undefined) , which call appears in the assay record?
Response: inactive

Prompt: For C=CCOc1c(Br)cc(Br)cc1Br , which call appears in the assay record?
Response: active

Prompt: For c1ccc2c(c1)ccc1ncccc12 , which call appears in the assay record?
Response: inactive

Prompt: For C=C[Si](OC(C)=O)(OC(C)=O)OC(C)=O , which call appears in the assay record?
Response: inactive

Prompt: For C=CC(=O)OCC(Br)CBr (centres undefined) , which call appears in the assay record?
Response: active

Prompt: For CCCCCCCCCCCCCCCC[N+](C)(C)CC , which call appears in the assay record?
Response: active

Prompt: For CC(C)C(=O)C(C)C , which call appears in the assay record?
Response: inactive

Prompt: For CC1OC1C1CCC2(C)OC2C1 (centres undefined) , which call appears in the assay record?
Response: inactive

Prompt: For CCCCC(CC)COC(=O)c1ccccc1O (centres undefined) , which call appears in the assay record?
Response: active

Prompt: For C=CCOCC(O)CCl (centres undefined) , which call appears in the assay record?
Response: inactive

Prompt: For C#CC1(O)CC[C@H]2[C@@H]3CCC4=CCCC[C@@H]4[C@H]3CC[C@@]21C (some centres undefined) , which call appears in the assay record?
Response: active

Prompt: For C=CC=CC=CCCCCC , which call appears in the assay record?
Response: inactive

Prompt: For c1ccc(-c2ccccn2)nc1 , which call appears in the assay record?
Response: inactive

Prompt: For CC(C)(c1cc(Br)c(OCCO)c(Br)c1)c1cc(Br)c(OCCO)c(Br)c1 , which call appears in the assay record?
Response: active

Prompt: For CCOc1nc(F)cc2nc(S(=O)(=O)Nc3c(Cl)cccc3C(=O)OC)nn12 , which call appears in the assay record?
Response: inactive

Prompt: For S=C(NC1CCCCC1)NC1CCCCC1 , which call appears in the assay record?
Response: inactive

====

Read-out: Matrix Metallopeptidase 9 (MMP9), MMP9 (gene 4318)
assay.procedure: BSK_KF3CT_MMP9: BioMAP Diversity Plus: KF3CT Assay for Matrix Metallopeptidase 9 (MMP9) Biomarker Activity (AID 2283074)
experimental.context: primary human keratinocytes with fibroblasts; actives raise or lower the signal
The source made the active and inactive calls. Rule for the calls: active = hit-call score of the fitted dose curve at least 0.9, where 1 is the maximum; inactive = score below 0.9.
Respond only with the outcome that fits, drawn from t for active, f for inactive

Prompt: For C=CC=CC=CCCCCC , which call appears in the assay record?
Response: f

Prompt: For C#CC1(O)CC[C@H]2[C@@H]3CCC4=CCCC[C@@H]4[C@H]3CC[C@@]21C (stereo partly specified) , which call appears in the assay record?
Response: t

Prompt: For N#[N+]c1ccc2c(S(=O)(=O)[O-])cccc2c1O , which call appears in the assay record?
Response: f

Prompt: For COc1ccc2nc(N)sc2c1 , which call appears in the assay record?
Response: f

Prompt: For COCc1c(C(C)C)nc(C(C)C)c(/C=C/[C@@H](O)C[C@@H](O)CC(=O)O)c1-c1ccc(F)cc1 , which call appears in the assay record?
Response: f

Prompt: For CCOc1nc(F)cc2nc(S(=O)(=O)Nc3c(Cl)cccc3C(=O)OC)nn12 , which call appears in the assay record?
Response: f
